Could you please report measured binding signal for the items listed next?
- system: SIX1-Q177R homeodomain (human, UniProt Q15475 108-198, Q177R)
- Sequence: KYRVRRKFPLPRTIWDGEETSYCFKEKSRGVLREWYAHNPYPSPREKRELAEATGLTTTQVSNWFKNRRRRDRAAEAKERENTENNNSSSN
- assay: universal protein binding microarray; Universal all-10-mer PBM (8x60K, AMADID 030236), 300 nM GST-tagged protein, Alexa Fluor 488 anti-GST; buffer, salt, pH and temperature not stated (as in Berger); high values mean tight binding
- protocolConditions: protein: ivt; tags: N-terminal GST; dsDNA, one strand shown
In all, about 33,000 sequences were measured (“e-score”: median about -0.05, highest 2% from about 0.38 on). Shown is part of a subset that was picked to be rich in the highest values.
Give bare numbers, in E-score.

# annotated cases, reported binding signal shown
sequenceChain: AGGTGTTC
binding signal (E-score): 0.457

sequenceChain: GTGTGTTA
binding signal (E-score): 0.298

Record binding signal per entry; entries follow.
1. AACGGACA
2. CGGTGTTA

0.278
0.485

Record binding signal for all entries; do not skip any.
1. GGGGGTTA
2. GGGTGTTA
3. CTAAAACA
4. CCCCCGAC
5. ACGTGTTG
6. TCCTAGGA
7. AGGTGTTG

1: 0.293; 2: 0.475; 3: 0.211; 4: 0.272; 5: 0.346; 6: 0.22; 7: 0.448
